Each recorded value in this set is attributed to patent US8778871B2.

Molecular target: hOT7T175 (Homo sapiens)
Construct: expressed in transfected cells
Sequence (Q969F8 whole entry L364H): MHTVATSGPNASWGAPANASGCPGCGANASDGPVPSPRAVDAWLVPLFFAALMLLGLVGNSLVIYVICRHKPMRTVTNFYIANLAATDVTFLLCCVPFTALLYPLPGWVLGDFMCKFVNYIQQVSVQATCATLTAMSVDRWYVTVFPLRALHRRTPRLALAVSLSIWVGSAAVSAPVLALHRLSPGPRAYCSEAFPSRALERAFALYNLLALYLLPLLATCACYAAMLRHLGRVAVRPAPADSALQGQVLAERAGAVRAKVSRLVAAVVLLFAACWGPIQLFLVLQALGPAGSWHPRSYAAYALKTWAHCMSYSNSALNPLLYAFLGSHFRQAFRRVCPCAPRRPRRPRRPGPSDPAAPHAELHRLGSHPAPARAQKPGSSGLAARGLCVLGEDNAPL
Assay: Intracellular Ca ion level-increasing activity using FLIPR (180 seconds; specific activity to Metastin (1-54))
Assay type: cell-based
Settings: hOT7T175/CHO, change in intracellular calcium ion level for 180 seconds, Tables 21-23
Non-standard residues stand in square brackets, D forms with d. Residues, ends and D or L forms follow the SMILES beside them. Arg(Me) = CNC(=N)NCCC[C@H](N)C(=O)O; d3Pal = N[C@H](Cc1cccnc1)C(=O)O; Cha = N[C@@H](CC1CCCCC1)C(=O)O; azaGly = NNC(=O)O
intracellular Ca ion level-increasing activity [specific activity to Metastin (1-54)]: recorded values
Give the figure by itself; no unit, no explanation.

get_value(item= CNC(=N)NCCC[C@H](NC(=O)[C@H](CC(C)C)NC(=O)NNC(=O)[C@H](Cc1ccccc1)NC(=O)[C@H](CO)NC(=O)[C@H](CC(N)=O)NC(=O)[C@H](CC1CCCCC1)NC(=O)[C@@H](Cc1ccc(O)cc1)NC(=O)[C@H](N)Cc1cccnc1)C(=O)N[C@@H](Cc1ccccc1)C(N)=O [Compound No. 291] (H-[d3Pal][dY][Cha]NSF[azaGly]L[Arg(Me)]F-NH2) , readout=intracellular Ca ion level-increasing activity [specific activity to Metastin (1-54)]) returns 2
